molecular target: Microphthalmia-associated transcription factor (Homo sapiens); assay: MITF inhibitors by FRET titration, dose response, biochemical, high throughput (AID 1259375); conditions: FRET biochemical assay, MITF inhibition;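 note: FRET between CFP-tagged and YFP-tagged MITF protein partners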
Calls of active or inactive are those of the source. The rule behind the calls is not given here.
Possible outcomes: 1 (active), 0 (inactive)

- smiles-input: "O=C(Nc1ccc(Oc2ccccc2)cc1)c1ccnc(-c2cccs2)c1"
  class-name: 0
- smiles-input: "O=C(/C=C/c1ccco1)NCc1cccc(CNC(=O)/C=C/c2ccco2)c1"
  class-name: 0
- smiles-input: "Cc1cc(OCCOCCN2CCNCC2)ccc1Cl"
  class-name: 0
- smiles-input: "NC(=O)c1ccc(N=Cc2cc3c(cc2[N+](=O)[O-])OCO3)cc1"
  class-name: 1
- smiles-input: "Cn1nnc(-c2ccc(Nc3nccc(-c4ccc5nc(C6CC6)[nH]c(=O)c5c4)n3)cc2)n1"
  class-name: 0
- smiles-input: "Cc1cc2c(c(=O)[nH]1)C(=O)O/C2=C\\c1ccco1"
  class-name: 0

* * *

target: Microphthalmia-associated transcription factor (Homo sapiens); assay: MITF inhibitors by FRET titration, dose response, biochemical, high throughput (AID 1259375); conditions: FRET biochemical assay, MITF inhibition;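 note: FRET between CFP-tagged and YFP-tagged MITF protein partners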
The source made the active and inactive calls. The rule behind the calls is not given here.
Possible outcomes: True = active, False = inactive

- molecule: "CC1CCC(N2CCN(Cc3ccco3)CC2)CC1 (configuration not stated)"
  class-name: "False"
- molecule: "Cc1ccc(-c2ncn(-c3ccc(Nc4cc(-n5cnc(Nc6ccccc6)n5)c(F)cn4)cc3)n2)cn1"
  class-name: "False"
- molecule: "O=c1c2ccccc2nc(-c2ccccc2)n1-c1ccccc1O"
  class-name: "False"
- molecule: "CCn1ccnc1CN1CCN(Cc2cccc(OC)c2)C(CCO)C1 (configuration not stated)"
  class-name: "False"
- molecule: "O=C1Nc2ccc(S(=O)(=O)NCc3ccccc3)cc2C1=O"
  class-name: "False"
- molecule: "COCCCNC(=O)/C(C#N)=C/c1ccc(OCC(=O)O)c(OC)c1"
  class-name: "False"
- molecule: "CC(Oc1ccc(O)cc1)(P(=O)(O)O)P(=O)(O)O"
  class-name: "False"
- molecule: "CC(O)(CNCCN1CCOCC1)COc1ccc(Cl)cc1 (configuration not stated)"
  class-name: "False"
- molecule: "COc1ccccc1C1(NC(=O)CCCCC2SCC3NC(=O)NC32)CCCC1 (configuration not stated)"
  class-name: "False"
- molecule: "COc1ccc2c(c1)CC(C(=O)Nc1ccc(-c3cn[nH]c3)cc1OCc1ccccc1)CO2 (configuration not stated)"
  class-name: "False"
- molecule: "C[C@@H](OCc1ccccc1)[C@@H]1NC(=O)[C@H]2CN(C(=O)Nc3cccc(F)c3)CCN2C1=O"
  class-name: "False"
- molecule: "Cc1ccc(S(=O)(=O)C(CNC(=O)c2ccco2)c2cccs2)cc1 (configuration not stated)"
  class-name: "False"
- molecule: "COc1ccc2nc(-c3ccco3)c(-c3ccco3)nc2c1"
  class-name: "False"
- molecule: "NC1(C(Cl)(Cl)Cl)Oc2ccccc2O1"
  class-name: "False"
- molecule: "COc1cc(C)c2c(c1C=O)Oc1c(c(C)c(O)c3c1C(O)OC3=O)OC2=O (configuration not stated)"
  class-name: "True"
- molecule: "COCCCNC(=O)/C(C#N)=C/c1ccc(-c2ccc(Cl)c(C(=O)O)c2)o1"
  class-name: "False"
- molecule: "O=C(/C=C/c1ccco1)Nc1c[nH]c(=O)[nH]c1=O"
  class-name: "False"
- molecule: "CN1CC[C@H](Oc2cc(-c3cn[nH]c3)ccc2NC(=O)OCc2ccccc2)C1"
  class-name: "False"
- molecule: "CC[C@H](C)[C@@H]1NC(=O)[C@H]2CN(C(=O)NCc3ccccc3)CCN2C1=O"
  class-name: "False"
- molecule: "CCOc1ccc(CN2CCN(Cc3cccnc3)CC2)cc1"
  class-name: "False"
- molecule: "C[C@H]1NC(=O)[C@H]2CN(C(=O)NCc3ccccc3)CCN2C1=O"
  class-name: "False"
- molecule: "O=C1N[C@@H](CC2CCCCC2)C(=O)N2CCN(C(=O)Nc3ccccc3)C[C@H]12"
  class-name: "False"

* * *

molecular target: Microphthalmia-associated transcription factor (Homo sapiens) (UniProt O75030); assay: MITF inhibitors by FRET titration, dose response, biochemical, high throughput (AID 1259375); conditions: FRET biochemical assay, MITF inhibition;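 note: FRET between CFP-tagged and YFP-tagged MITF protein partners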
Sequence (O75030 whole entry, looked up): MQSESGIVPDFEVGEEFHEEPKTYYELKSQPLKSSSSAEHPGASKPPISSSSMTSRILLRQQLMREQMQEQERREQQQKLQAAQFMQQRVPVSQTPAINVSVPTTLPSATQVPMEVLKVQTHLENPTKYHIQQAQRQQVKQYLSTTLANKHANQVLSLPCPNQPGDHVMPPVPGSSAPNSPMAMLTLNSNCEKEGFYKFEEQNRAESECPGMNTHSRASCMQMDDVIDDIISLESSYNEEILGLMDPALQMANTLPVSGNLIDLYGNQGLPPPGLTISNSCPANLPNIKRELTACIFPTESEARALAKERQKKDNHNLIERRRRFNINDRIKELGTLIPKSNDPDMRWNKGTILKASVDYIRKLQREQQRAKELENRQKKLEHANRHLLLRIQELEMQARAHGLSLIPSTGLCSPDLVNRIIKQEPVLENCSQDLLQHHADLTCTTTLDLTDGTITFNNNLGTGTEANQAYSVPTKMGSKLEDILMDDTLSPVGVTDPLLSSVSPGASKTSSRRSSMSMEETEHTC
The source made the active and inactive calls. How the calls were made is not given here.
Possible outcomes: yes (active), no (inactive)

- compound: "Cc1ccc(COc2ccc(/C=N/N=C3\\NC(=O)C(CC(=O)O)S3)cc2)cc1 (configuration not stated)"
  class-name: "no"
- compound: "O=C(NCC(c1cccs1)S(=O)(=O)c1ccc(Cl)cc1)c1ccco1 (configuration not stated)"
  class-name: "no"
- compound: "COC(=O)c1c(NC(=O)c2ccc([N+](=O)[O-])o2)sc(Cc2ccc3c(c2)OCO3)c1C"
  class-name: "no"
- compound: "CN(C)[C@@H]1C(=O)C(C(=O)NCN2CCCC2)=C(O)[C@@]2(O)C(=O)C3=C(O)c4c(O)cccc4[C@@](C)(O)C3CC12 (some centres not stated)"
  class-name: "no"
- compound: "Cc1n[nH]c(=O)nc1NNc1ccc(C(=O)O)cc1"
  class-name: "no"
- compound: "O=C(c1cccc(F)c1)N1CCN(Cc2ccncc2)CC1"
  class-name: "no"
- compound: "O=C(NC1CCCCC1)N1CCN2C(=O)[C@@H]3CCCN3C(=O)[C@H]2C1"
  class-name: "no"
- compound: "C/C(=N\\Nc1ccc(S(=O)(=O)O)cc1)c1cccc(Br)c1"
  class-name: "no"
- compound: "CCOC(=O)C1C2NC(=S)N(c3cccc(Cl)c3)C1(C)Oc1c(OC)cccc12 (configuration not stated)"
  class-name: "no"
- compound: "CC[C@H](C)[C@@H]1NC(=O)[C@H]2CN(C(=O)Nc3cccc(F)c3)CCN2C1=O"
  class-name: "no"
- compound: "COc1ccc(OC)c(CN2CCN(Cc3ccc(F)cc3)CC2)c1"
  class-name: "no"
- compound: "Cc1cc2c(c(=O)[nH]1)C(=O)O/C2=C\\c1ccc(C)o1"
  class-name: "no"
- compound: "CCOC(=O)c1cc(N2C(=O)C3C4C=CC(C4)C3C2=O)ccc1Cl (configuration not stated)"
  class-name: "no"
- compound: "CC(=C/C(=O)O)/C=C/c1ccoc1"
  class-name: "no"
- compound: "O=C(CCCCC1SCC2NC(=O)NC21)NC1(c2ccc(F)cc2)CCCC1 (configuration not stated)"
  class-name: "no"
- compound: "Cc1cc2ncn(Cc3noc(-c4ccco4)n3)c2cc1C"
  class-name: "no"
- compound: "CCC12c3ccccc3C(c3ccccc31)C1C(=O)NC(=O)C12 (configuration not stated)"
  class-name: "no"
- compound: "O=C1N[C@@H](CSCc2ccccc2)C(=O)N2CCN(C(=O)NC3CCCCC3)C[C@H]12"
  class-name: "no"
- compound: "O=C1N[C@@H](Cc2ccccc2)C(=O)N2CCN(C(=O)NC3CCCCC3)C[C@H]12"
  class-name: "no"
- compound: "CN(C)/C=C/C=C/C(=O)C1CCC/C(=C\\C=C\\N(C)C)C1=O (configuration not stated)"
  class-name: "no"
- compound: "O=C(NCCO)c1ccc2nc(-c3ccco3)c(-c3ccco3)nc2c1"
  class-name: "yes"
- compound: "NC(=O)c1cncc(-c2cccs2)c1"
  class-name: "no"

* * *

target: UniProtKB O75030; assay: MITF inhibitors by FRET titration, dose response, biochemical, high throughput (AID 1259375); details: FRET biochemical assay, MITF inhibition;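 note: FRET between CFP-tagged and YFP-tagged MITF protein partners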
Active and inactive are the calls of the source. No rule for the calls is given here.

- molecule: "Cc1[nH][nH]c(=O)c1C(c1ccc([N+](=O)[O-])o1)c1c(C)[nH][nH]c1=O"
  IC50: "> 6.48 µM (inactive)"
- molecule: "CCCCCCCCCCCCCCCC(=O)OC[C@H](O)[C@H]1OC(=O)C(=O)C1O (stereo partly specified)"
  IC50: "> 6.48 µM (inactive)"
- molecule: "O=C1N[C@@H](Cc2c[nH]c3ccccc23)C(=O)N2CCN(C(=O)NC3CCCCC3)C[C@H]12"
  IC50: "> 6.48 µM (inactive)"
- molecule: "Nc1ccc(NCCO)c(N)c1"
  IC50: "> 5.9 µM (inactive)"
- molecule: "CC(Oc1ccc2c(C(F)(F)F)cc(=O)oc2c1)C(=O)NN (stereo unspecified)"
  IC50: "> 6.56 µM (inactive)"
- molecule: "O=C(/C=C/c1ccco1)NCC(=O)N/N=C/c1ccc(C(=O)O)cc1"
  IC50: "> 6.48 µM (inactive)"
- molecule: "CCC(C)c1ccccc1OCCNCCN(C)C (stereo unspecified)"
  IC50: "> 6.48 µM (inactive)"
- molecule: "O=C(O)c1cccc(-n2cccc2/C=C\\[N+](=O)[O-])c1"
  IC50: "> 6.48 µM (inactive)"
- molecule: "O=S(=O)(N=S(=O)(/C=C/c1ccccc1)c1ccccc1)c1ccccc1 (stereo unspecified)"
  IC50: "> 5.36 µM (inactive)"
- molecule: "CN(CCc1ccccn1)Cc1ccc(F)cc1"
  IC50: "> 6.59 µM (inactive)"
- molecule: "C=C1C(C(=O)NCc2ccco2)C1C(=O)NCc1ccco1 (stereo unspecified)"
  IC50: "> 7.72 µM (inactive)"
